- target.or.test.system: Neuropeptide FF receptor 1 (Homo sapiens)
- Sequence (Q9GZQ6 whole entry): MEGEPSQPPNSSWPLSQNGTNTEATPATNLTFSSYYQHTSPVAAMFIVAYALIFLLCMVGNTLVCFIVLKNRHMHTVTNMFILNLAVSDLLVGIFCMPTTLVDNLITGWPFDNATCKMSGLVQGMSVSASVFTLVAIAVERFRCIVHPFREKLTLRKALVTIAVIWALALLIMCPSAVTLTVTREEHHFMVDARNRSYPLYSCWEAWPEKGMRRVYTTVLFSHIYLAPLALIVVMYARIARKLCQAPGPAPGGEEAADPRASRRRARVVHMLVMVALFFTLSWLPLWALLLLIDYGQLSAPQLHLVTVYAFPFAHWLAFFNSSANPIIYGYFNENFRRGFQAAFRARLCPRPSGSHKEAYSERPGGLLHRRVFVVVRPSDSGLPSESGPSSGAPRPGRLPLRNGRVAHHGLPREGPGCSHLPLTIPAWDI
- protocol.summary: Agonist activity at NPFFR1 (unknown origin) expressed in HEK293T cells harboring EP2 incubated for 15 mins by cAMP assay
- Assay type: functional, cell-based
readout.kind: EC50 (µM)

P: N=C(N)N/N=C/c1ccc(Cl)c(C(F)(F)F)c1
Q: N=C(N)N/N=C/c1ccc(-c2ccccc2C(F)(F)F)o1
Asked: Parameter check: reported EC50 is higher for which label, P or Q ? Please indicate the selected item by its label.
Given back: P

====

- target.or.test.system: UniProtKB Q9GZQ6
- protocol.summary: Antagonist activity at human NPFFR1 expressed in CHO cells assessed as reversal of NPVF-induced inhibition of forskolin-stimulated cAMP accumulation incubated for 10 mins by liquid scintillation counting method
- Type: functional, cell-based
readout.kind: pEC50
Scale explanation: pEC50 corresponds to minus log10 of a concentration expressed in moles per litre.

pEC50 measured on `NC(=O)[C@H](Cc1ccccc1)NC(=O)[C@H](CCCN=C(N)N)NC(=O)C12CC3CC(CC(C3)C1)C2` = 5.33

====

- target.or.test.system: Neuropeptide FF receptor 2 (Homo sapiens)
- Sequence (Q9Y5X5 whole entry): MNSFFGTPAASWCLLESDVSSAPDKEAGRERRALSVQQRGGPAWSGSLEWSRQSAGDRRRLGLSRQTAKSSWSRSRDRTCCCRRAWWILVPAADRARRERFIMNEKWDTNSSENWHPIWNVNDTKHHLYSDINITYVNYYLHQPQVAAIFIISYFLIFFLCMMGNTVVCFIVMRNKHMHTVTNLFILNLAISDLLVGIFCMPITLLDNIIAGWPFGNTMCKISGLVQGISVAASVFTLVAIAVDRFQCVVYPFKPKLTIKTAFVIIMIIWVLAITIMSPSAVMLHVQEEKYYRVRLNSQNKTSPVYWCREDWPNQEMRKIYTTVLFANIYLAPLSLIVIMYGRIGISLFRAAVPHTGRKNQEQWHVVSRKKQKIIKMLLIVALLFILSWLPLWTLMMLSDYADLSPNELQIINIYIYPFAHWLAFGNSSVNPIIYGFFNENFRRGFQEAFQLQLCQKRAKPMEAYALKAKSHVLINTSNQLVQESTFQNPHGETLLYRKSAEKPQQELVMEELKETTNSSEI
- protocol.summary: Displacement of TAMRA-NPFF from human NPFFR2 expressed in CHO-K1 cells preincubated for 15 mins followed by GTPgammaS addition and measured after 15 to 120 mins by competitive binding assay
- Type: cell-based
pKi: −log10 of the molar value.
readout.kind: pKi

> print(dat)
                                 smiles.str                     target.or.test.system  readout.kind  recorded.value
1  COc1cc2c(c(OC)c1OC)-c1c(cc3c(c1OC)CC3)[C@@H](C(=O)Oc1ccccc1)[C@@](C)(O)[C@@H](C)C2  Neuropeptide FF receptor 2 (Homo sapiens)           pKi            8.66
2  COc1cc2c(c(OC)c1OC)-c1c(cc(C)c(C)c1OC)[C@@H](C(=O)Oc1ccccc1)[C@@](C)(O)[C@@H](C)C2  Neuropeptide FF receptor 2 (Homo sapiens)           pKi            8.85

====

- target.or.test.system: Neuropeptide FF receptor 1 (Homo sapiens)
- protocol.summary: Displacement of [125I]YVP from human NPFFR1 expressed in CHO cells
- Type: cell-based
pKi: −log10 of the molar value.
readout.kind: pKi

a: NC(=O)[C@H](Cc1ccccc1)NC(=O)[C@H](CCCN=C(N)N)NC(=O)C12CC3CC(CC(C3)C1)C2
b: NC(N)=NCCC[C@H](NC(=O)C(c1ccccc1)c1ccccc1)C(=O)NCc1ccc(O)cc1
Asked: Select the item whose pKi value is smaller, choosing between a and b . Write down the label attached to your selection.
Given back: a

====

- protocol.summary: Displacement of [ […]]Y8Famide from NPFFR in rat spinal cord membranes
- Format: cell membranes, Membrane
readout.kind: Ki (µM)
Write it as a number; the unit µM goes unstated.

// Ki lookup, molecule = CN(C)c1cccc2c(S(=O)(=O)N3CCC[C@H]3C(=O)N[C@@H](CCC(N)=O)C(=O)N[C@@H](CCCNC(=N)N)C(N)=O)cccc12 [DANSYLPQRAMIDE] , result: 13

====

- target.or.test.system: Neuropeptide FF receptor 2 (Rattus norvegicus, UniProt Q9EQD2)
- Sequence (Q9EQD2 whole entry): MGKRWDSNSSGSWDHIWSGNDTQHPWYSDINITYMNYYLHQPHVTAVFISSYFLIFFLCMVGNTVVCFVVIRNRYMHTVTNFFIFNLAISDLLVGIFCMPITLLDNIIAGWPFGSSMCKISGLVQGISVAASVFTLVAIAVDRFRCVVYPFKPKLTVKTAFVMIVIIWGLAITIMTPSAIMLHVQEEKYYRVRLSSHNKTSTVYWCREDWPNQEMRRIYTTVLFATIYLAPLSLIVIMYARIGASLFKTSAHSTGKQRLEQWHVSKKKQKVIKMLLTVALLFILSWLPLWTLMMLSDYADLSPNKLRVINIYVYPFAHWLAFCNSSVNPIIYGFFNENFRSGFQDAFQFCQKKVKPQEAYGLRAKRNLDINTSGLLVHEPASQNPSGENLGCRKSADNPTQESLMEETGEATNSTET
readout.kind: Ki (nM)
Value expressed in nM; do not type the unit.

`Cc1cc(NC(=N)N)nc2ccccc12` has a reported Ki of 185
